# assay.name: PAMPA prediction of BBB permeability
# Assay type: in vitro ADME
# settings: PAMPA, PBS pH 7.4; read-out: Pe ± SEM
measure.name: Papp (nm/s)
// units = nm/s; emit number, no label

Answered examples (3):
1) C#CCN(C)c1nc(NCCCC)c2ccc(Cl)cc2n1 : 9
2) C#CCN(C)c1nc(NC2CCCCC2)c2ccc(Cl)cc2n1 : 93.9
3) C#CCN(C)c1nc(NC2CCCCC2)c2ccccc2n1 : 56.1

Asked: Quick one: Papp of `C#CCN(C)c1nc(NCCCC)c2ccccc2n1` ?
Given back: 73.7

====

# assay.target: human AChE (hAChE) (Homo sapiens)
# Construct: made in house
# Sequence (P22303 32-614): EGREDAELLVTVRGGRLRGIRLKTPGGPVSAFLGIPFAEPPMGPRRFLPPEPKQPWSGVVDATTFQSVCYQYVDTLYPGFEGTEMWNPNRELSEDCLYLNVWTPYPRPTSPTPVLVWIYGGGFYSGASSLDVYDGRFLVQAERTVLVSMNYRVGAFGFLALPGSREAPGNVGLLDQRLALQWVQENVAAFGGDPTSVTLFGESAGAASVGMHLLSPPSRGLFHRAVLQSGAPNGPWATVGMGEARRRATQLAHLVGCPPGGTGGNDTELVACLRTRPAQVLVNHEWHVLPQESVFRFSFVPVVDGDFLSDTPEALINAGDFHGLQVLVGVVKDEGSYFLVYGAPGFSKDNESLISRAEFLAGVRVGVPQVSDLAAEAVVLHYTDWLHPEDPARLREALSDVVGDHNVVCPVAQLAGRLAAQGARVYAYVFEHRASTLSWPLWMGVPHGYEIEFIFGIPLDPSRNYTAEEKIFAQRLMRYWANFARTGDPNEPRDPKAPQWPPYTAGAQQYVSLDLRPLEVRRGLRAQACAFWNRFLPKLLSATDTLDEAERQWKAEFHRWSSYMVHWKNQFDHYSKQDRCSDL
# assay.name: hAChE inhibition, modified Ellman's method
# Type: biochemical
# settings: read-out: % of AChE inhibition
measure.name: inhibition at 1 µM (%)
Please respond with the number in % and leave the unit unwritten.

Look over these answered cases.
1) C#CCN(C)c1nc(NCCOC)c2ccc(Cl)cc2n1 [II-6f] : 9
2) C#CCN(C)c1nc(N)c2ccccc2n1 [I-6a] : 5
3) C#CCN(C)c1nc(NC(C)C)c2cc(OC)ccc2n1 [III-6d] : 2
4) C#CCN(C)c1nc(NC2CCCCC2)c2ccc(Cl)cc2n1 [II-6h] : 3

Asked: Entry C#CCN(C)c1nc(NCCOC)c2cc(OC)ccc2n1 [III-6f] has what inhibition at 1 µM?
Given back: 6

Asked: Likewise for C#CCN(C)c1nc(NC2CC2)c2ccc(Cl)cc2n1 [II-6g] ?
Given back: 4

Asked: Now try C#CCN(C)c1nc(NCCCC)c2cc(OC)ccc2n1 [III-6e] .
Given back: 8

====

# assay.target: human AChE (hAChE) (Homo sapiens)
# Construct: made in house
# assay.name: hAChE inhibition, modified Ellman's method
# Format: biochemical
# settings: read-out: % of AChE inhibition
measure.name: inhibition at 1 µM (%)
Give just the numeric value; % need not be written.

1. C#CCN(C)c1nc(NC)c2cc(OC)ccc2n1 : 4
2. C#CCN(C)c1nc(NC(C)C)c2ccccc2n1 : 4
3. C#CCN(C)c1nc(NC2CCCCC2)c2cc(OC)ccc2n1 : 3

Please look at the following molecule next.
Asked: Item `C#CCN(C)c1nc(NC2CC2)c2ccccc2n1` with human AChE (hAChE) (Homo sapiens) - inhibition at 1 µM?
Given back: 4
